Taken from the supplement of paper PMC6992640.

- System: WHIM30 (cells of a triple-negative basal-like breast cancer xenograft)
- EXPERIMENT_DESCRIPTION: cell viability (% of vehicle); higher = less cytotoxic;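 note: PDX cells carrying CMV promoter-driven luciferase, viability read as total photon flux per second by IVIS imaging following D-luciferin, vehicle control 0.1% DMSO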
- COND: 10 µM; 72 h
ASSAY_ENDPOINT: cell viability
Reply briefly: the number, and no unit.

Example cases with answers are listed next.
Identify measured cell viability corresponding to CCCc1nc(C(C)(C)O)c(C(=O)O)n1Cc1ccc(-c2ccccc2-c2nn[nH]n2)cc1 [Olmesartan]
154

Quickly give me recorded cell viability for CC(C)C1C(=O)NC(CCCN=C(N)N)C(=O)NCC(=O)NC(CC(=O)O)C(=O)NC(Cc2ccccc2)C(=O)N1C (stereo not given) [Cilengitide]
143

Give a short answer stating reported cell viability for CNCCC(Oc1ccccc1C)c1ccccc1.Cl (stereo not given) [Atomoxetine HCl] .
180

Name the recorded cell viability of the item COC(=O)C1=C(C)NC(C)=C(C(=O)OC(C)C)C1c1cccc2nonc12 (stereo not given) [Isradipine (Dynacirc)] in your answer.
88.7

Tell me its cell viability given Cl.Cl.OCCOCCN1CCN(C(c2ccccc2)c2ccc(Cl)cc2)CC1 (stereo not given) [Hydroxyzine 2HCl] as the entry.
140

Give cell viability for the following compound: CCNC1CC(N)C(OC2OC(CN)=CCC2N)C(O)C1OC1OCC(C)(O)C(NC)C1O.CCNC1CC(N)C(OC2OC(CN)=CCC2N)C(O)C1OC1OCC(C)(O)C(NC)C1O.O=S(=O)(O)O.O=S(=O)(O)O.O=S(=O)(O)O.O=S(=O)(O)O.O=S(=O)(O)O (stereo not given) [Netilmicin Sulfate]
138

Consider the compound CN(C)c1cc(NC(=O)CNC(C)(C)C)c(O)c2c1CC1CC3C(N(C)C)C(=O)C(C(N)=O)=C(O)C3(O)C(=O)C1=C2O (stereo not given) [Tigecycline] and give its recorded cell viability.
129

For Cc1c(-c2ccccc2)oc2c(C(=O)OCCN3CCCCC3)cccc2c1=O.Cl [Flavoxate hydrochloride] , write its cell viability.
107

Return cell viability (reported value) for this compound: CC(C)(Oc1ccc(CCNC(=O)c2ccc(Cl)cc2)cc1)C(=O)O [Bezafibrate]
113

Determine from records and report cell viability for O=C(O)Cc1cc(I)c(Oc2ccc(O)c(I)c2)c(I)c1 [Tiratricol]
115

Further cases:
Give the reported cell viability for this compound. CNC(=C[N+](=O)[O-])NCCSCc1ccc(CN(C)C)o1.Cl [Ranitidine]
113

Please give measured cell viability of the following entry: NCCc1cnc[nH]1.O=P(O)(O)O.O=P(O)(O)O [Histamine Phosphate]
149

For the compound Cn1cnc([N+](=O)[O-])c1Sc1ncnc2nc[nH]c12 [Azathioprine] , report cell viability.
110

For the compound NCCCC(O)(P(=O)([O-])O)P(=O)(O)O.[Na+] [Alendronate sodium] , give its measured cell viability value.
116

For the compound CCC1(O)CC2CN(CCc3c([nH]c4ccccc34)C(C(=O)OC)(c3cc4c(cc3OC)N(C)C3C(O)(C(=O)OC)C(OC(C)=O)C5(CC)C=CCN6CCC43C65)C2)C1 (stereo not given) [vinblastine] , give its reported cell viability.
124

###

Listing: cell viability of selected compounds
- System: HCI16 (cells of a triple-negative basal-like breast cancer xenograft)
- EXPERIMENT_DESCRIPTION: cell viability (% of vehicle); higher = less cytotoxic
- COND: 10 µM; 72 h
Answer field: number only, no words.

Some solved entries appear below for comparison.
State, in one line, measured cell viability of CC(=O)C1CCC2C3CCC4=CC(=O)CCC4(C)C3CCC12C (configuration not stated)
113

Let me know recorded cell viability for COc1nc(C)nc(Cl)c1NC1=NCCN1 , thanks.
95.3

***
Please report the measured cell viability for CN(C)CCc1c[nH]c2ccc(CC3COC(=O)N3)cc12 (configuration not stated)
107

Answer with the recorded cell viability for the compound listed here: O=C([O-])c1ccccc1O.[Na+] [Sodium salicylate]
124

Give cell viability for the following compound: COc1ccccc1OCC(O)CN1CCN(CC(=O)Nc2c(C)cccc2C)CC1 (configuration not stated)
120

Please give measured cell viability of the following entry: Clc1ccc2nsnc2c1NC1=NCCN1
110

Name the recorded cell viability of the item Cc1ccc(NC(=O)C2(c3ccc4c(c3)OC(F)(F)O4)CC2)nc1-c1cccc(C(=O)O)c1 in your answer.
103

Consider the compound O=c1c(O)c(-c2ccc(O)c(O)c2)oc2cc(O)cc(O)c12 and give its recorded cell viability.
151

Tell us which cell viability value is on record for Cc1ccc(-n2nc(C(C)(C)C)cc2NC(=O)Nc2ccc(OCCN3CCOCC3)c3ccccc23)cc1
87.4

Consider the compound CN(Cc1cnc2nc(N)nc(N)c2n1)c1ccc(C(=O)NC(CCC(=O)O)C(=O)O)cc1 (configuration not stated) [Methotrexate] . State its measured cell viability.
93.4
